Tested on: Colon cancer organoid
Protocol Details: Identification of compartment-specific drug sensitivities in O06 CRC organoid-stroma F06 CAF co-cultures. Organoid is transduced with Lucferase2-P2A-EGFP lentivirus, fibroblast with Renilla-dsRed lentivirus. Dual-Glo Luciferase assay is used to report viability data.
Type: functional, Homo sapiens
Parameters: dose or concentration left out as unconfirmed
Cond: Transduced with Renilla-dsRed lentivirus
So basically: Cell Viability at 80% or higher? That is 1.0. Lower than 80%? That is 0.0.

Does Cell Viability meet or surpass 80% for `Cc1c(N2CCNCC2)nc2ccc(Br)cc2c1C(=O)NC[C@H](CCC(=O)O)c1ccccc1Cl` ? 0.0

Does Cell Viability meet or surpass 80% for `CNC(=O)c1cc(C(=O)N[C@H]2[C@@H]3COC[C@@H]32)cc2c1O[C@H](CF)[C@H]2c1ccccc1` ? 1.0

Does Cell Viability meet or surpass 80% for CCNC(=O)c1cc2c(N3CCOCC3C)ccnc2[nH]1 (configuration not stated) ? 1.0

Does Cell Viability meet or surpass 80% for `CO[C@@H](C)c1c(Nc2ccc([C@@H](N(C)C(=O)C3CCS(=O)(=O)CC3)C(F)(F)F)cc2)cnc2cc(Cl)nn12` ? 0.0

Does Cell Viability meet or surpass 80% for `CCCc1cc(C)[nH]c(=O)c1CNC(=O)c1cc(-c2ccc(N3CCN(C(C)C)CC3)nc2)cc2c1cnn2C(C)C` ? 1.0

Does Cell Viability meet or surpass 80% for `CC#CC(=O)N1CCC[C@H]1c1nc(-c2ccc(C(=O)Nc3ccccn3)cc2)c2c(N)nccn12` ? 1.0

Does Cell Viability meet or surpass 80% for COc1cc(C)c(Sc2cnc(NC(=O)c3ccc(CNC(C)C(C)(C)C)cc3)s2)cc1C(=O)N1CCN(C(C)=O)CC1 (configuration not stated) ? 0.0

====

Test system: Colon cancer organoid
Protocol Details: Identification of compartment-specific drug sensitivities in O20 CRC organoid-stroma F20 CAF co-cultures. Organoid is transduced with Lucferase2-P2A-EGFP lentivirus, fibroblast with Renilla-dsRed lentivirus. Dual-Glo Luciferase assay is used to report viability data.
Format: functional, Homo sapiens
Parameters: dose or concentration left out as unconfirmed
Cond: Transduced with Renilla-dsRed lentivirus
Cell Viability overview
// return numeric value only (unit: %, not printed)

In the examples that follow, each entry is paired with its recorded Cell Viability.
INSERT INTO measurements (compound_structure_string, unit_symbol, recorded_number) VALUES
  ('Cc1cn(-c2cc(NC(=O)c3ccc4c(c3)CN(c3cncnc3)C[C@@H]4C)cc(C(F)(F)F)c2)cn1', '%', 107.854),
  ('CNCCN1CCC(OCc2ccccc2)CC1', '%', 211.667),
  ('CC(=O)Nc1nc(CN2CCC[C@H](Cc3cc(C)nc(C)c3)C2)cs1', '%', 105.251),
  ('COc1cc(C#N)ccc1S(=O)(=O)Nc1ccc2c(c1)cc(C)c(=O)n2C', '%', 124.149),
  ('Cc1nnc2c3ccccc3c(N[C@@H](C)[C@H](c3ccccc3)N(C)C)nn12', '%', 127.368);

Now take the following molecule into account.
Cell Viability recorded for this molecule, `N#Cc1cnc(Nc2cc(NC[C@H]3CNCCO3)c(C(F)(F)F)cn2)cn1` , is 133.202

====

Test system: Colon cancer organoid
Protocol Details: Identification of compartment-specific drug sensitivities in O20 CRC organoid-stroma F20 CAF co-cultures. Organoid is transduced with Lucferase2-P2A-EGFP lentivirus, fibroblast with Renilla-dsRed lentivirus. Dual-Glo Luciferase assay is used to report viability data.
Format: functional, Homo sapiens
Design: dose or concentration left out as unconfirmed
Cond: Transduced with Renilla-dsRed lentivirus
Quantity Kind: Cell Viability (%)
// return numeric value only (unit: %, not printed)

In the examples that follow, each entry is paired with its recorded Cell Viability.
INSERT INTO measurements (compound, quantity_kind, recorded_number) VALUES
  ('Cl.Cl.c1ccc([C@@H]2C[C@H]2NC2CCNCC2)cc1', 'Cell Viability', 97.3617),
  ('O=C(NNS(=O)(=O)c1ccccc1F)c1cc(F)cc(-c2ccccn2)c1', 'Cell Viability', 152.012);

Cell Viability recorded for this compound, `O=C(CCCCCCNC(=O)c1cnc(N(c2ccccc2)c2ccccc2)nc1)NO` , is 130.22

Cell Viability recorded for this compound, `FC(F)c1nc2ccccc2n1-c1nc(N2CCOCC2)nc(N2CCOCC2)n1` , is 95.7276

Cell Viability recorded for this compound, `Nc1ccc(C(=O)Nc2cccc(-c3nc(N4CCOCC4)c4oc5ncccc5c4n3)c2)cn1` , is 75.1771

Cell Viability recorded for this compound, `CCn1cc(-c2cccc(C(F)(F)F)c2)c2sc(C(=N)NC3CCS(=O)(=O)CC3)cc2c1=O` , is 124.144

====

Test system: Colon cancer organoid
Protocol Details: Identification of compartment-specific drug sensitivities in O20 CRC organoid-stroma F20 CAF co-cultures. Organoid is transduced with Lucferase2-P2A-EGFP lentivirus, fibroblast with Renilla-dsRed lentivirus. Dual-Glo Luciferase assay is used to report viability data.
Type: functional, Homo sapiens
Set-up: dose or concentration left out as unconfirmed
Cond: Transduced with Renilla-dsRed lentivirus
Quantity Kind: Cell Viability

In the examples that follow, each entry is paired with its recorded Cell Viability.
INSERT INTO assay_data (molecule, result) VALUES
  ('COCC(=O)NC/C=C/c1ccc2ncnc(Nc3ccc(Oc4ccc(C)nc4)c(C)c3)c2c1 [CP-724714]', '94.0282%'),
  ('CCOC(=O)CCNc1cc(N2CCc3ccccc3CC2)nc(-c2ccccn2)n1', '127.032%'),
  ('COc1ccccc1-c1cc(Nc2cccc(CS(N)(=O)=O)c2)ncn1', '97.4583%'),
  ('CO[C@@H](C)c1c(Nc2ccc([C@H](N(C)C(=O)C3CCS(=O)(=O)CC3)C(F)(F)F)cc2)cnc2cc(Cl)nn12 [NVS-MALT1]', '98.697%'),
  ('COc1cc(C)c(Sc2cnc(NC(=O)c3ccc(CNC(C)C(C)(C)C)cc3)s2)cc1C(=O)N1CCN(C(C)=O)CC1 (stereo not drawn)', '97.5626%'),
  ('CN(C)C(=O)c1cc2cnc(Nc3ccc(N4CCNCC4)cn3)nc2n1C1CCCC1 [RIBOCICLIB]', '144.514%'),
  ('COc1cc(-c2cn(C)c(=O)c3cnccc23)c(OC)cc1CN(C)C', '139.676%');

// assay Colon cancer organoid, entry CC[C@H](CC(=O)O)n1c(=O)c2ncccc2n(Cc2cn(C)c3cc(C)cc(C)c23)c1=O [BI-1942] , Cell Viability value = 100.799%

====

Tested on: Colon cancer organoid
Protocol Details: Identification of compartment-specific drug sensitivities in O20 CRC organoid-stroma F20 CAF co-cultures. Organoid is transduced with Lucferase2-P2A-EGFP lentivirus, fibroblast with Renilla-dsRed lentivirus. Dual-Glo Luciferase assay is used to report viability data.
Assay type: functional, Homo sapiens
Parameters: dose or concentration left out as unconfirmed
Cond: Transduced with Lucferase2-P2A-EGFP lentivirus
Quantity Kind: Cell Viability (%)
// return numeric value only (unit: %, not printed)

INSERT INTO measurements (molecule, unit_symbol, recorded_number) VALUES
  ('COc1cc(OC)cc(-c2noc(N3CCN(C)C4(CCN(c5ccccc5)CC4)C3)n2)c1', '%', 90.427);

Cell Viability recorded for this molecule, Cc1noc([C@H]2C[C@@H](c3ccc(C(F)(F)F)cc3)CN(C(=O)N3CCS(=O)(=O)C3)C2)n1 [BAY-448] , is 115.252

Cell Viability recorded for this molecule, CCOc1ccn(-c2ccc(F)cc2)c(=O)c1C(=O)Nc1ccc(Oc2ccnc(N)c2Cl)c(F)c1 [BMS-777607] , is 100.48

Cell Viability recorded for this molecule, `Nc1ncnc2c1ccn2[C@@H]1O[C@H]([C@H](O)c2ccccc2)[C@@H](O)[C@H]1O` , is 28.7794

Cell Viability recorded for this molecule, CN1CCN(Cc2ccc(Nc3ncc(Cl)c(Nc4ccccc4S(=O)(=O)N(C)C)n3)cc2)CC1 [DUBERMATINIB] , is 1.051

Cell Viability recorded for this molecule, CCC(=O)N1CCOc2c(cc(-c3ccc(OC)c(OC)c3)cc2OCC2CCCN(C)C2)C1 (stereo unspecified) , is 85.7121

Cell Viability recorded for this molecule, CNC(=O)c1cc(C(=O)N[C@H]2[C@@H]3COC[C@@H]32)cc2c1O[C@@H](CF)[C@@H]2c1ccccc1 [GSK943] , is 107.286

====

Cell Viability overview
Test system: Colon cancer organoid
Protocol Details: Identification of compartment-specific drug sensitivities in O06 CRC organoid-stroma F06 CAF co-cultures. Organoid is transduced with Lucferase2-P2A-EGFP lentivirus, fibroblast with Renilla-dsRed lentivirus. Dual-Glo Luciferase assay is used to report viability data.
Format: functional, Homo sapiens
Parameters: dose or concentration left out as unconfirmed
Cond: Transduced with Renilla-dsRed lentivirus
// return numeric value only (unit: %, not printed)

In the examples that follow, each entry is paired with its recorded Cell Viability.
INSERT INTO measurements (compound, assayed_system, quantity_kind, recorded_number) VALUES
  ('Cc1ccc(-c2cnc([C@@]3(O)CC[C@H](C(=O)O)C(C)(C)C3)s2)cc1Nc1cccc(C(F)(F)F)n1 [MRL-SYKi-NC]', 'Colon cancer organoid', 'Cell Viability', 86.5869),
  ('O=C1c2ccc(Nc3ccc(F)cc3F)cc2CCc2ccc(OC[C@H](O)CO)cc21 [Skepinone-L]', 'Colon cancer organoid', 'Cell Viability', 88.0925),
  ('CCNC(=O)c1cc2c(N3CCOC[C@@H]3C)ccnc2n1C', 'Colon cancer organoid', 'Cell Viability', 69.3706),
  ('C=CC(=O)Nc1cccc(C(=O)Nc2ccc(Nc3cc(-c4[nH]c(SC)nc4C)ccn3)cc2)c1', 'Colon cancer organoid', 'Cell Viability', 89.5907),
  ('CN1CCN(C(=O)C(C)(C)c2ccc(C(=O)Nc3cn4cc(-c5cc(C(C)(C)C)cc(C(C)(C)C)c5)ccc4n3)cc2)CC1 [T3-CLK-N]', 'Colon cancer organoid', 'Cell Viability', 80.0588),
  ('O=C(O)c1ccc(-c2coc3ncc(-c4ccccc4)cc23)cc1Cl', 'Colon cancer organoid', 'Cell Viability', 102.883);

// assay Colon cancer organoid, entry CC(=O)C1=C(C)N(c2cccc(C(F)(F)F)c2)C(=O)N[C@H]1c1ccc(C#N)nc1 [BAY-677] , Cell Viability value = 89.4043

// assay Colon cancer organoid, entry `CN1C[C@H](Nc2cnn(C)c(=O)c2Br)C[C@H](c2ccccc2)C1` , Cell Viability value = 181.327

The reported measurements were obtained from ChEMBL document CHEMBL5608141.
